The values you see were collected from patent US20140186359A1.

TARGET: T1, human CAPRIN-1 expressed on the surface of human cancer cells (human, UniProt Q14444 2-709)
T1 sequence: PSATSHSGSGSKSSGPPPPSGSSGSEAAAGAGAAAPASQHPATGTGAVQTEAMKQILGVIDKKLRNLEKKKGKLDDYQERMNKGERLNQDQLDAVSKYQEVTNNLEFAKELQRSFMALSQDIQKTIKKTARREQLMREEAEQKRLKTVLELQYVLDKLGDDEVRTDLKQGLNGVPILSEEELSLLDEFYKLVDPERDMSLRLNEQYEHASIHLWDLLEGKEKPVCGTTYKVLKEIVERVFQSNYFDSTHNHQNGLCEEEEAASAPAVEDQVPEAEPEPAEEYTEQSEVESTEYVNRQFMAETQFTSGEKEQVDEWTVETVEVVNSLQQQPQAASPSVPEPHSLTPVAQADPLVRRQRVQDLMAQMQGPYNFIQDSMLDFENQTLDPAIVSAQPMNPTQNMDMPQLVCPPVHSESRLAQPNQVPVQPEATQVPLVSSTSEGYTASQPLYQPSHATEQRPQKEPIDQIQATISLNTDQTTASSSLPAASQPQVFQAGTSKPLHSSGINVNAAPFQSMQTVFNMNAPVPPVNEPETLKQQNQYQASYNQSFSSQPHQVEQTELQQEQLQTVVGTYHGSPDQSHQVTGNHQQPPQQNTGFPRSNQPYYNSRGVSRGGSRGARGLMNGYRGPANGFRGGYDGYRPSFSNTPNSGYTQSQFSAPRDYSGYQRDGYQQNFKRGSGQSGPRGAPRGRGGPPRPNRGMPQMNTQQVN
METHOD DESCRIPTION: cell-based or functional assay
QUANTITY: ADCC cytotoxic activity (51Cr release) against all other cancer cell lines listed

Solved entries:
BINDER	VALUE MEASURED
human-chicken chimeric monoclonal antibody #2 (antibody, V domains shown) VH: AVTLDESGGGLQTPGGALSLVCKASGFTFRSHSMFWVRQAPGKGLEYVAGIYGVGRSIRYGSAVKGRATMSRDNGQSTVRLQLNNLRAEDTGTYYCAKSGYFSNRRYWDSGAYFIDAWGHGTEVIVS VL: ALTQPASVSANLGGTVEITCSGGYSNYGWYQQKSPGSAPVTVIYYNDKRPSDIPSRFSGSKSGSTGTLTITGVRAEDEAVYYCGGYDSSTDAGIFGAGTTLTV	≥ 10%
human-mouse chimeric monoclonal antibody #1 (antibody, V domains shown) VH: GPGLVQPSQSLSITCTVSGFSLTTYDLHWVRQSPGKGLEWLGVIWSGGSTDYNAAFISRLSISKDNSKSQVFFKMNSLQANDTAIYYCARNYGYSAWFAYWGQGTLVTVSA VL: DVLMTQTPLSLPVSLGDQASISCRSSQSIVHSNGNTYLEWYLQKPGQSPKLLIYKVSNRFSGVPDRFSGSGSGTDFTLKISRVEAEDLGVYYCFQGSHVPLTFGAGTKLELKR	≥ 10%
human-chicken chimeric monoclonal antibody #4 (antibody, V domains shown) VH: AVTLDESGGGLQTPGGAVSLVCKGSGFTFSSYGMGWVRQAPGKGLEYVAAIRKDGSTNYGPAVKGRATISRDNGQSTVRLQLSNLRAEDTATYYCAKRSHTGVNAAKIDAWGRGTEVIVS VL: ALTQPASVSANPGETVKITCSGASHNYGWFQQKSPGSAPVTVIYSNDKRPSDIPSRFSGSKSGSTATLTITGVQADDEAVYFCGGYNIYGPTFGAGTTLTV	≥ 10%

Consider now this further binder.
Exercise: Query: ADCC cytotoxic activity (51Cr release) against all other cancer cell lines listed; subject: human-chicken chimeric monoclonal antibody #1 (antibody, V domains shown) VH: AVTLDESGGGLQTPGGALSLVCKASGFTFRSHSMFWVRQAPGKGLEYVAGIYGVGRSIRYGSAVKGRATMSRDNGQSTVRLQLNNLRAEDTATYYCAKSGYFSNSRYWDSGAYFIDAWGHGTEVIVS VL: ALTQPASVSANPGETVEITCSGGYSNYGWYQQKSPGSAPVTVIYYNDKRPSDIPSRFSGSKSGSTATLTITGVQAEDEAVYFCGGYDSSTDAGIFGAGTTLTV
Solution: ≥ 10%
